Literature roundup of Nuclear receptor subfamily 1 group I member 2 (Homo sapiens, UniProt O75469) data, read-out pIC50.
- Assay System: Nuclear receptor subfamily 1 group I member 2 (Homo sapiens, UniProt O75469)
- Sequence (O75469 whole entry): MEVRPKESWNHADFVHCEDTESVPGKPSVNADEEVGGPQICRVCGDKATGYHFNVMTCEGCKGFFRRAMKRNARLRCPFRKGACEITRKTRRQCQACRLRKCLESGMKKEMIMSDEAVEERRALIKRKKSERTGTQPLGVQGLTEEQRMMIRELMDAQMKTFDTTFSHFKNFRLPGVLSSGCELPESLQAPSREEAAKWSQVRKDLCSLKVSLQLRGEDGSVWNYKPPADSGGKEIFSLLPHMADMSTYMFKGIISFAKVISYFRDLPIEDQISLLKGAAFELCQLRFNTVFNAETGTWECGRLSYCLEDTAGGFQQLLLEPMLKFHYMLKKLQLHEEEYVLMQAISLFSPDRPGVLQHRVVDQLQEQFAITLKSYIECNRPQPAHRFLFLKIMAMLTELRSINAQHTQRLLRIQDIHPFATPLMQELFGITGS
pIC50: −log10 of the molar value.

Known results for compounds:
Compound	pIC50
C[C@@H](O[C@H]1CN2C(=O)[C@H]3C[C@@H](N)C[C@H]3[C@H]2[C@@H]1c1ccc(F)cc1)c1cc(C(F)(F)F)cc(C(F)(F)F)c1	< 4.60
Nc1ncncc1-c1ccnc2c1cnn2-c1ccc(F)cc1	< 4.30
O=C(O)CC1CCC2(CCN(c3ccc(-c4nc5cc(C(F)(F)F)ccc5[nH]4)cn3)CC2)OC1 (stereo in doubt)	< 4.52
O=S(=O)(c1ccccc1)N(CC(F)(F)F)c1ccc(C(O)(C(F)(F)F)C(F)(F)C(F)(F)C(F)(F)F)cc1 (stereo not given)	7.70
O=C(O)[C@H]1CC[C@](F)(C(=O)N2CC[C@@]3(S(=O)(=O)c4ccc(F)cc4)c4ccc(C(F)(C(F)(F)F)C(F)(F)F)cc4CC[C@@H]23)CC1	< 4.40
CC(C)COc1ccc(-c2cn(C)c3cc(C(=O)NS(C)(=O)=O)c(F)cc23)cn1	< 4.30
O=S(=O)(c1ccccc1)N(CC(F)(F)F)c1ccc(C(O)C(F)(F)F)cc1 (stereo not given)	5.00
O=C(O)[C@H]1CC[C@](O)(C(=O)N2CC[C@@]3(S(=O)(=O)c4ccc(F)cc4)c4ccc(C(F)(C(F)(F)F)C(F)(F)F)cc4CC[C@@H]23)CC1	< 4.40
O=C(C1CCS(=O)(=O)CC1)N1CC[C@@]2(S(=O)(=O)c3ccc(F)cc3)c3ccc(C(F)(C(F)(F)F)C(F)(F)F)cc3CC[C@@H]12	< 4.40
CNC(=O)c1csc(C(=O)c2c[nH]c3ccccc23)n1	4.49

Which pIC50 is reported for this compound? O=C(O)[C@H]1CC[C@@H](C(=O)N2CC[C@@]3(S(=O)(=O)c4ccc(F)cc4)c4ccc(C(F)(C(F)(F)F)C(F)(F)F)cc4CC[C@@H]23)CC1 < 4.40

Could you do the same for Cc1c([C@@H](O)CN2CCC3(CC2)CCN(c2ccc(=O)n(C)n2)C3=O)ccc2c1COC2=O , please? < 4.52

Could you do the same for C[C@@H](O[C@H]1CN2C(=O)C=C(C3=CCN(C(C)(C)C)CC3)CC2[C@@H]1c1ccc(F)cc1)c1cc(C(F)(F)F)cc(C(F)(F)F)c1 (stereo not given in full) , please? < 4.52

Could you do the same for O=C(O)C12CC(C(=O)N3CC[C@@]4(S(=O)(=O)c5ccc(F)cc5)c5ccc(C(F)(C(F)(F)F)C(F)(F)F)cc5CC[C@@H]34)(C1)C2 , please? < 4.40

Could you do the same for NS(=O)(=O)c1nccc(-c2ccc(CO)cc2)c1-c1nnn[nH]1 , please? < 4.52

---

- Assay System: Nuclear receptor subfamily 1 group I member 2 (Homo sapiens)
- Sequence (O75469 whole entry): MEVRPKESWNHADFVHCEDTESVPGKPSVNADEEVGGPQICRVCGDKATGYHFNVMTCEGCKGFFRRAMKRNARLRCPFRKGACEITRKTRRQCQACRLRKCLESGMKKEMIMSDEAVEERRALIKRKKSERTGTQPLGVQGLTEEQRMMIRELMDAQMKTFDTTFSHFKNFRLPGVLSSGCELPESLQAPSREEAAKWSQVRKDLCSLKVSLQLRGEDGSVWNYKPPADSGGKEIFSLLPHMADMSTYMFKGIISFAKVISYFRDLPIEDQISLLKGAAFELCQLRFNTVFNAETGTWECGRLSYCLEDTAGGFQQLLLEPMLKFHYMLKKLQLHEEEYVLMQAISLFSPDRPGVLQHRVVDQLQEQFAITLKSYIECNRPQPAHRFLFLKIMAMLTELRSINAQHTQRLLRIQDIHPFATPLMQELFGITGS
pIC50: −log10 of the molar value.
Literature roundup of Nuclear receptor subfamily 1 group I member 2 (Homo sapiens) data, read-out pIC50.

Known results for molecules:
Smiles Input	Assay System	pIC50
O=C(O)C[C@@H]1COC2(CCN(c3ccc(-c4nc5cc(C(F)(F)F)ccc5[nH]4)cn3)CC2)C1	Nuclear receptor subfamily 1 group I member 2 (Homo sapiens)	< 4.52
C[C@@H](O[C@H]1CN2C(=O)[C@H]3C[C@H](NCc4ccccc4)C[C@H]3[C@H]2[C@@H]1c1ccc(F)cc1)c1cc(C(F)(F)F)cc(C(F)(F)F)c1	Nuclear receptor subfamily 1 group I member 2 (Homo sapiens)	< 4.60
O=C(N1CC[C@@]2(S(=O)(=O)c3ccc(F)cc3)c3ccc(C(F)(C(F)(F)F)C(F)(F)F)cc3OC[C@@H]12)C1(O)CCS(=O)(=O)CC1	Nuclear receptor subfamily 1 group I member 2 (Homo sapiens)	< 4.40

Please look at the following molecule next.
Which pIC50 is reported for this molecule? C[C@@H](O[C@H]1CN2C(=O)[C@H]3C[C@@H](NCc4ccccc4)C[C@H]3[C@H]2[C@@H]1c1ccc(F)cc1)c1cc(C(F)(F)F)cc(C(F)(F)F)c1 < 4.60
